Every entry's value here was drawn from patent US4803221A.

Measured LD20 of individual entries
System: lymphocytic leukemia P388/0
Protocol Summary: Lymphocytic Leukemia P388/0 Test
Assay type: in vivo, mouse (CD2-F1)
Parameters: unit: mg/kg
Condition Notes: ip days 1, 5, 9; doses on a mg/kg basis

{"Compound": "CCSc1c2ccccc2c(CNC(C)(CO)CO)c2ccccc12.Cl [Example 19B]", "LD20": 625}
{"Compound": "CC(CO)(CO)NCc1cccc2c(Cl)c3ccccc3cc12 [Example 37E]", "LD20": 140}
{"Compound": "CCCCc1c2ccccc2c(CNC(C)(CO)CO)c2ccccc12.Cl [Example 45B]", "LD20": 212}
{"Compound": "C[S+]([O-])c1c2ccccc2c(CNC(C)(CO)CO)c2ccccc12.Cl (stereo not shown) [Example 12B]", "LD20": 55}
